# Test target: CB2R (Homo sapiens)
# Sequence (P34972 whole entry): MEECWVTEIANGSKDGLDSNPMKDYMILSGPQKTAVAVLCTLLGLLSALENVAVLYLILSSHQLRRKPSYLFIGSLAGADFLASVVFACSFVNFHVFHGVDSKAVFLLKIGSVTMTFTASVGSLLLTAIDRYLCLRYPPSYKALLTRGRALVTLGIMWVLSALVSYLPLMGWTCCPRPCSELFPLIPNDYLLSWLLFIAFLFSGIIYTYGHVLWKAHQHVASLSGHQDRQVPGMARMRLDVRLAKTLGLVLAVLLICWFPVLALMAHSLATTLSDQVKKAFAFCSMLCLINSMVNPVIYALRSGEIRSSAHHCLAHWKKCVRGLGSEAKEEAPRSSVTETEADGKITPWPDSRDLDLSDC
# Test summary: forskolin-stimulated cAMP accumulation assay in HEK293-CB2 cells
# Test parameters: forskolin 30 min, then compound 6 h, read-out: IC50 of inhibition of forskolin-stimulated cAMP
Observed property: pIC50
Units for pIC50: none; it is -log10 of a concentration expressed in mol/L.

O=c1cc(-c2ccc(O)c(O)c2)oc2c([C@@H]3O[C@H](CO)[C@@H](O)[C@H](O)[C@H]3O)c(O)cc(O)c12
6.96

Given the compound C[C@H]1[C@H](C)CC[C@]2(C)CC[C@]3(C)C(=CC(=O)[C@@H]4[C@@]5(C)CC[C@@H](O)[C@](C)(C(=O)O)[C@@H]5CC[C@]43C)[C@H]12 , what is its reported pIC50?
7.14

Okay, and COc1ccc(/C=C/C(=O)c2c(O)cc(OC)cc2OC)cc1 ?
6.04

Same question for O=c1c2cc(O)c(O)cc2oc2cc(O)c([C@@H]3O[C@H](CO)[C@@H](O)[C@H](O)[C@H]3O)c(O)c12 please.
5.93

Now this one: COc1cc(O)ccc1/C=C/C(=O)c1ccc(O)cc1
7.04

Where do the numbers come from? From paper PMC8838898.
